Provide the recorded IC50 for the entries that follow.
- Tested on: NCI-H460
- assay-remarks: Antiproliferative activity against human NCI-H460 cells assessed as reduction in cell growth by CCK8 assay
- Format: functional, cell-based

Requested read-out: IC50. Entry: "C[C@H](CC[C@@H](O)C(C)(C)O)[C@H]1CC[C@@]2(C)[C@@H]3CC=C4[C@@H](Cc5cc6ccncc6nc5C4(C)C)[C@]3(C)C(=O)C[C@]12C"
18.3 µM

Requested read-out: IC50. Entry: "C[C@H](CC[C@@H](O)C(C)(C)O)[C@H]1CC[C@@]2(C)[C@@H]3CC=C4[C@@H](Cc5cc6ccccc6nc5C4(C)C)[C@]3(C)C(=O)C[C@]12C"
17.1 µM

Requested read-out: IC50. Entry: "C[C@H](Cc1cnc2ccccc2c1)[C@H]1CC[C@@]2(C)[C@@H]3CC=C4[C@@H](CC[C@H](O)C4(C)C)[C@]3(C)[C@H](O)C[C@]12C"
24.6 µM

Requested read-out: IC50. Entry: C[C@H](CC[C@@H](O)C(C)(C)O)[C@H]1CC[C@@]2(C)[C@@H]3CC=C4[C@@H](CC[C@H](O)C4(C)C)[C@]3(C)[C@H](O)C[C@]12C [MOGROL]
> 100 µM

Requested read-out: IC50. Entry: O=c1[nH]cc(F)c(=O)[nH]1 [FLUOROURACIL]
7.03 µM
